# Tested on: MDA-MB-231 (KRAS G13D)
# testMethodNotes: Cell viability assay (384-well, Alamar blue)
# Format: cell-based
# setupConditions: Homo sapiens, MDA-MB-231, 48 h, Table 8, MDA-MB-231 (KRAS^G13O), 384-well, alamar blue
experimentalEndpoint: pEC50
Note on units: pEC50 is unitless, being -log10 of a concentration expressed in mol/L.

- chemSmiles: "NC1(C(=O)NCCCn2cc(-c3cccc(F)c3)c3c(CN4CCN(CCOc5ccc(Cl)cc5)CC4)cccc32)CCNCC1"
  testedTarget: "MDA-MB-231 (KRAS G13D)"
  experimentalEndpoint: "pEC50"
  assayValue: 5.25

Now consider a different molecule.
Please report the measured pEC50 for NC1(C(=O)NCCCn2cc(-c3ccc(OC(F)(F)F)cc3)c3cc(CN4CCN(Cc5c(Cl)cccc5Cl)CC4)ccc32)CCNCC1
5.64

Measured values drawn from patent US9926293B2 for this set.
